Tested on: U251 CNS
Lab note: assign the record to one of active, inactive

Query: Identify the outcome logged in this assay for the compound shown: "COC(=O)c1c(C)[nH]c(/C=C2\N=C(c3ccc[nH]3)C=C2OC)c1C"
Response: active

Query: Identify the outcome logged in this assay for the compound shown: "O=C(/C(=C/c1cccc([N+](=O)[O-])c1)c1ccccc1)c1ccccc1"
Response: inactive

Query: Identify the outcome logged in this assay for the compound shown: "CC1(C)N=C(N)N=C(N)N1c1ccc(OCc2ccc(S(=O)(=O)F)c(Cl)c2)c(Cl)c1"
Response: inactive

Query: Identify the outcome logged in this assay for the compound shown: "N#Cc1cccc(NC(=O)c2cc(-c3ccc(F)cc3F)ccc2O)c1"
Response: inactive

Query: Identify the outcome logged in this assay for the compound shown: CCN(CC)CCCC(C)Nc1cnc(C(=O)Nc2cccc3ccc(OC)nc23)cn1 (stereo not given)
Response: inactive

* * *

Test system: IGROV1 ovarian
assaySummary: NCI tumour cell line growth inhibition, 48 h
endpoint: log10(TGI) (log10 of the value in µM)
Scale: log10; quantity: TGI; unit before log: µM

In plain terms, CC(C)CCCC(=O)CCCCCCC(=O)CCN(O)C(=O)C(N)CO (stereo not given) has a documented log10(TGI) of 1.50

In plain terms, Cc1ccc(NC(=O)c2sc3nc(C)c(C(O)c4ccccc4)cc3c2N)cc1 (stereo not given) has a documented log10(TGI) of 1.57

In plain terms, "C/C(=N\Nc1ccc(Cl)cn1)c1ccccn1" has a documented log10(TGI) of 1.58

In plain terms, CCN(CC)CCCC(C)Nc1cnc(C(=O)Nc2cccc3ccc(OC)nc23)cn1 (stereo not given) has a documented log10(TGI) of 0.69

In plain terms, C=C(CC[C@@H](C)[C@H]1CC[C@@]2(C)C3=C(CC[C@]12C)[C@@]1(C)CC[C@H](O)[C@@H](C)C1CC3)C(C)C (stereo not given in full) has a documented log10(TGI) of 0.92

In plain terms, "CC(C)(C)c1ccc(-c2nc3ccc(Cl)cc3c(=O)o2)cc1" has a documented log10(TGI) of 1.94

In plain terms, "COc1cc2c(c(OC)c1OC)C(=O)[C@@H]1c3ccc([N+](=O)[O-])cc3C(=O)N(CCCBr)[C@H]21" has a documented log10(TGI) of 1.33

* * *

Assignment: determine reported TGI for the given compounds.
System: UACC-257 melanoma
assaySummary: NCI tumour cell line growth inhibition, 48 h
Quick reminder: number only, in µM, skip the unit.

In plain terms, O=C(O)Cc1cccc2c1OC(c1ccccc1)C(Cl)(C(=O)c1ccccc1)C2=O (centres undefined) has a documented TGI of 32

In plain terms, "Cc1nc2ccccc2n1C(=O)c1c(F)c(F)c(F)c(F)c1F" has a documented TGI of 39.1

In plain terms, "CCCCCCCCCCN(CCCCCCCCCC)C(=O)COc1c2cc(C(C)(C)C)cc1Cc1cc(C(C)(C)C)cc(c1OCC(=O)N(CCCCCCCCCC)CCCCCCCCCC)Cc1cc(C(C)(C)C)cc(c1OCC(=O)N(CCCCCCCCCC)CCCCCCCCCC)Cc1cc(C(C)(C)C)cc(c1OCC(=O)N(CCCCCCCCCC)CCCCCCCCCC)C2" has a documented TGI of 29.6

In plain terms, "CC(C)=CC(=O)C[C@H]1C(=O)O[C@@H]2C[C@H]3C(C)=CC(=O)[C@@H](O)[C@]3(C)[C@H]3[C@@]4(O)OC[C@]32[C@@H]1[C@@H](C)[C@H]4O" has a documented TGI of 0.608

In plain terms, "O=C(/C(=C/c1cccc([N+](=O)[O-])c1)c1ccccc1)c1ccccc1" has a documented TGI of 18.8

* * *

Test system: HL-60(TB) leukemia
assaySummary: NCI tumour cell line growth inhibition, 48 h
endpoint: TGI

In plain terms, "c1ccc(CSP234N5CCN2CCN3CCN4CC5)c(CSP234N5CCN2CCN3CCN4CC5)c1" has a documented TGI of 77 µM

In plain terms, "CCn1c(SCC(=O)NNC(=S)Nc2ccc(C)cc2)nc2ccccc2c1=O" has a documented TGI of > 100 µM

In plain terms, "CC(C)c1cc2c(O)c(c1)Cc1cc(C(C)C)cc(c1O)Cc1cc(C(C)C)cc(c1O)Cc1cc(C(C)C)cc(c1O)C2" has a documented TGI of > 100 µM

In plain terms, CC(C)Oc1ccc2c(c1)OCC1Cc3ccccc3OC21 (centres undefined) has a documented TGI of > 100 µM

In plain terms, CCCCCN(CCCCC)CC(O)c1ccc(Cl)c2ccccc12 (centres undefined) has a documented TGI of 20.9 µM

In plain terms, C=C(CC[C@@H](C)[C@H]1CC[C@@]2(C)C3=C(CC[C@]12C)[C@@]1(C)CC[C@H](O)[C@@H](C)C1CC3)C(C)C (some centres undefined) has a documented TGI of 8.32 µM

In plain terms, CN1C(=O)c2ccccc2NC(=O)C12O[C@@H]2c1cccc(O)c1 (some centres undefined) has a documented TGI of > 100 µM

In plain terms, N#CCc1ccc(C(C#N)/C(CCCC(=O)Nc2cccc([N+](=O)[O-])c2)=N/NC(N)=S)cc1 (centres undefined) has a documented TGI of > 100 µM

In plain terms, CC(C)N1CN(C(C(=O)N[C@@H]2C(=O)N3C2SC(C)(C)C3C(=O)O)c2ccccc2)CSC1=S (some centres undefined) has a documented TGI of > 100 µM

* * *

System: NCI-H460 lung
assaySummary: NCI tumour cell line growth inhibition, 48 h
Assignment: determine reported TGI for the given compounds.

In plain terms, Cc1ccc(N=Nc2c(C)c(C#N)c(=S)n(C3OC(CO)C(O)C(O)C3O)c2C)cc1 (stereo unspecified) has a documented TGI of 91.3 µM

In plain terms, N#CCc1ccc(C(C#N)/C(CCCC(=O)Nc2cccc([N+](=O)[O-])c2)=N/NC(N)=S)cc1 (stereo unspecified) has a documented TGI of > 100 µM

In plain terms, "O=C1NCCCNCCCNCCCNC(=O)c2cccc1n2" has a documented TGI of > 100 µM

In plain terms, "COc1ccc(/C(Cl)=C(\C=O)c2ccc([N+](=O)[O-])cc2)cc1" has a documented TGI of > 100 µM

In plain terms, "c1ccc2c(c1)nc1n2CNC1" has a documented TGI of > 100 µM

In plain terms, "COc1cc(OC)c2c(=O)c(OC)c(-c3ccc4c(c3)OCO4)oc2c1" has a documented TGI of > 100 µM

In plain terms, "CC[CH2][Sn]([Cl])([Cl])[CH2]CC.Oc1ccccc1C=NCCN=Cc1ccccc1O" has a documented TGI of 33 µM

In plain terms, "CN(C)CCCN1c2ccccc2Sc2cnccc21" has a documented TGI of > 100 µM

In plain terms, "CS(=O)(=O)c1cc(=O)c2ccccc2s1" has a documented TGI of 41.2 µM

In plain terms, "Cc1nc2ccccc2c(=O)n1-c1ccccc1F" has a documented TGI of > 100 µM

In plain terms, "CCn1c2ccccc2n2c(=O)c3c(c(C#N)c12)CCCC3" has a documented TGI of > 100 µM

* * *

System: SNB-19 CNS
assaySummary: NCI tumour cell line growth inhibition, 48 h
Assignment: determine reported TGI for the given compounds.

In plain terms, "Cc1ccc(NC(=O)c2cccc(OP(=O)(O)Nc3ccc(C)cc3)c2)cc1" has a documented TGI of > 100 µM

In plain terms, "COc1cc(/C=C2\N=C(c3ccccc3)N(c3nc4c(OC)ccc(OC)c4s3)C2=O)ccc1O" has a documented TGI of > 100 µM

In plain terms, "CNc1nc(N)c(N=O)c(Nc2ccc(Br)cc2)n1" has a documented TGI of > 100 µM

In plain terms, Nc1ncn(C2CC(O)C(CO)O2)c(=O)n1 (configuration not stated) has a documented TGI of > 349 µM

In plain terms, "N#Cc1nc(C2=C(Cl)c3ccccc3OC2)[nH]c1C#N" has a documented TGI of > 100 µM

In plain terms, "N.N.O=C([O-])P(=O)([O-])[O-].[Na+].[Pt+4]" has a documented TGI of > 100 µM

In plain terms, "CCCCOC(=O)NC(=O)c1cn(C2CCCCC2)c(=O)[nH]c1=O" has a documented TGI of 69.3 µM

In plain terms, NC(CCC(=O)O)C(=O)N1CCN(c2nc(N3CCCC3)c3nc(Cl)c(NCc4ccccc4)nc3n2)CC1 (configuration not stated) has a documented TGI of 34.4 µM

In plain terms, "O=[N+]([O-])c1cccc2nc3ccccc3c(NCCC[N+]3([O-])CCOCC3)c12" has a documented TGI of 2.8 µM

In plain terms, "COc1cc2c3c(n(C)c(=O)c2cc1OC)-c1cc2c(cc1/C3=C\CNCCCN)OCO2" has a documented TGI of 10.4 µM

In plain terms, "N#Cc1cccc(NC(=O)c2cc(-c3ccc(F)cc3F)ccc2O)c1" has a documented TGI of 18.4 µM

In plain terms, "CC(=O)O.[Au].c1ccc([PH+](c2ccccc2)c2ccccc2)cc1" has a documented TGI of 15.8 µM

In plain terms, "COc1cc(NS(=O)(=O)c2ccc(-c3cnc(C4CC4)o3)cc2)ccc1F" has a documented TGI of 24.5 µM

In plain terms, "COC1(OC)CC(CO)(CNc2nc(N)nc(Cl)c2/C=N\O)C1" has a documented TGI of > 100 µM

In plain terms, "c1ccc(CSP234N5CCN2CCN3CCN4CC5)c(CSP234N5CCN2CCN3CCN4CC5)c1" has a documented TGI of > 100 µM

In plain terms, Cc1nn(C(=O)Cc2ccccc2)c2c1C(c1ccc(N(C)C)cc1)SC(N)=N2 (configuration not stated) has a documented TGI of > 100 µM

In plain terms, COc1cc2c(c(OC)c1OC)-c1c(cc3c(c1OC)OCO3)C1OC2C(C)C1C (configuration not stated) (tested in a mixture with another compound) has a documented TGI of > 100 µM

In plain terms, C=C(C)C(=O)OC1CCC2(C)C(CCC3C2CCC2(C)C(c4ccc(=O)oc4)CC4OC432)C1 (configuration not stated) has a documented TGI of 72.5 µM

In plain terms, COc1cc(O)c2c(c1)OCC(Cc1ccc(O)cc1)C2=O (configuration not stated) has a documented TGI of > 100 µM

In plain terms, COC(=O)[C@H](Cc1c[nH]c2ccccc12)NC(=O)[C@@H](OC)[C@@H]1Cc2cc3cc(OC4CC(OC5CC(O)C(O)C(C)O5)C(O)C(C)O4)c(C)c(O)c3c(O)c2C(=O)[C@H]1OC1CC(OC2CC(OC3CC(C)(O)C(O)C(C)O3)C(O)C(C)O2)C(O)C(C)O1 (some centres not stated) has a documented TGI of > 16.5 µM

In plain terms, "O=c1[nH]c(Nc2nc3ccccc3[nH]2)nc2c1CCC2" has a documented TGI of > 100 µM

In plain terms, "O=c1c2cc(S(=O)(=O)O)ccc2nc(COc2ccc(Oc3ccc(Cl)cc3Cl)cc2)n1-c1ccc(Cl)cc1Oc1c(Cl)cccc1Cl" has a documented TGI of > 100 µM

In plain terms, "CCOP(=O)(CN1CCNCCNCC1)OCC" has a documented TGI of > 100 µM

In plain terms, "COc1cc2c3c(n(CCCCOC(=O)C(Cl)(Cl)Cl)c(=O)c2cc1OC)-c1cc2c(cc1C3=O)OCO2" has a documented TGI of > 100 µM

In plain terms, COc1ccc(C2SCC(=O)N2NC(=O)Nc2c(C)nc3ccccn23)cc1 (configuration not stated) has a documented TGI of 47.3 µM

In plain terms, "Cc1ccc(NC(=S)N/N=C(/c2ccccc2)c2ccccn2)cc1" has a documented TGI of 22.2 µM

In plain terms, "CCOC(=O)C(Cc1cn(S(=O)(=O)c2ccccc2)c2ccccc12)(NC(C)=O)C(=O)OCC" has a documented TGI of > 100 µM

In plain terms, Cc1ccc(S(=O)(=O)OC(c2ccc(Cl)cc2Cl)C2OC(=O)c3ccccc32)cc1 (configuration not stated) has a documented TGI of > 100 µM

In plain terms, "CC(=O)OCCOCn1cnc2c(Cl)nc(Cl)nc21" has a documented TGI of > 100 µM

In plain terms, "C/C=C(\C)CC/C=C/CO[Si](C)(C)C(C)(C)C" has a documented TGI of > 100 µM

In plain terms, "COc1cc(OC)c2c(=O)c(OC)c(-c3ccc4c(c3)OCO4)oc2c1" has a documented TGI of 62.7 µM

In plain terms, "CC[C@H](C)[C@H]1O[C@]2(C=C[C@@H]1C)C[C@@H]1C[C@@H](C/C=C(\C)[C@@H](O[C@H]3C[C@H](OC)[C@@H](O[C@H]4C[C@H](OC)[C@@H](NC)[C@H](C)O4)[C@H](C)O3)[C@@H](C)/C=C/C=C3\CO[C@@H]4[C@H](O)C(C)=C[C@@H](C(=O)O1)[C@]34O)O2" has a documented TGI of 16.9 µM

In plain terms, "C/C(=N\Nc1ccc(Cl)cn1)c1ccccn1" has a documented TGI of > 100 µM

In plain terms, COC(=O)C(=O)C(C(=O)C=C(C)C)C(=O)C(=O)Nc1ccc(C)cc1C (configuration not stated) has a documented TGI of > 100 µM

In plain terms, "Clc1ccc(-c2c(C3=NCCCN3)nnn2-c2ccc(Cl)cc2)cc1" has a documented TGI of > 85.3 µM

In plain terms, "Cc1[nH]n(C2=NCCN2)c(=O)c1Cc1ccccc1" has a documented TGI of > 100 µM

In plain terms, "CCNc1cc2c(cc1O)CC[C@@H]1[C@@H]2CC[C@]2(C)[C@@H](O)CC[C@@H]12" has a documented TGI of > 46.1 µM
